Kindly supply the reported IC50 values for the records listed here.
# System: A549
# experiment_description: Cytotoxicity against human A549 cells after 48 hrs by MTT assay
# Type: cell-based
# stated_conditions: A549, 48 h
Give bare numbers, in µg/mL.

Examples with answers:
compound	readout_unit	IC50
CCC(C)n1ncn(-c2ccc(N3CCN(c4ccc(OCC5COC(Cn6cncn6)(c6ccc(Cl)cc6Cl)O5)cc4)CC3)cc2)c1=O (centres undefined)	µg/mL	182
O=C(NNC(=S)Nc1ccccc1)c1ccncc1	µg/mL	2040
O=C(NNC(=S)Nc1ccc(Cl)cc1)c1ccncc1	µg/mL	410

For O=C(NNC(=S)Nc1ccccc1[N+](=O)[O-])c1ccncc1 the compound record lists IC50 as 813

---

# Tested on: Candida
# experiment_description: Antifungal activity against Candida sp. clinical isolate 12810 derived from blood by microbroth dilution method
# Assay type: functional
observation_type: log10 MIC (log10 of the value in µg/mL)
Could you please treat all values as log10 of MIC in µg/mL?

These recorded examples may help you get a feel for the data.
molecule	system_tested	obs_value
Cc1cccc(C)c1NC(=S)NNC(=O)c1ccncc1	Candida	0.20
O=C(NNC(=S)Nc1ccc(I)cc1)c1ccncc1	Candida	-0.41
O=C(NNC(=S)Nc1cccc(Cl)c1)c1ccncc1	Candida	-1.05
O=C(NNC(=S)Nc1ccccc1)c1ccncc1	Candida	-0.11
CC(=O)Nc1ccc(NC(=S)NNC(=O)c2ccncc2)cc1	Candida	0.20

For each of the molecules below, state log10 MIC.
1. CCC(C)n1ncn(-c2ccc(N3CCN(c4ccc(OCC5COC(Cn6cncn6)(c6ccc(Cl)cc6Cl)O5)cc4)CC3)cc2)c1=O (centres undefined)
2. O=C(NNC(=S)Nc1ccccc1[N+](=O)[O-])c1ccncc1

[-0.60, -0.41]

The recorded log10 MIC with Candida for O=C(NNC(=S)Nc1ccc(Cl)cc1)c1ccncc1 was -1.05

---

# System: Candida albicans
# experiment_description: Antifungal activity against Candida albicans ATCC 66027 by microbroth dilution method
# Assay type: functional
Please go through the items and note down their MIC.

Cc1ccc(NC(=S)NNC(=O)c2ccncc2)cc1 > 50 µg/mL
O=C(NNC(=S)Nc1ccc([N+](=O)[O-])cc1)c1ccncc1 > 50 µg/mL

Parameter requested: MIC. Apply to each item below.
1. O=C(NNC(=S)NC1CCCCC1)c1ccncc1
2. CCOc1ccc(NC(=S)NNC(=O)c2ccncc2)cc1
3. COc1cccc(NC(=S)NNC(=O)c2ccncc2)c1
4. COc1ccc(NC(=S)NNC(=O)c2ccncc2)cc1

1: > 50 µg/mL; 2: > 50 µg/mL; 3: > 50 µg/mL; 4: > 50 µg/mL

The recorded MIC for entry Cc1cccc(NC(=S)NNC(=O)c2ccncc2)c1 equals > 50 µg/mL

meta.source: ChEMBL document CHEMBL3124853
